- system.tested: AMPK
- assay: AMPK activation, enzyme-linked immunosorbent assay
- study.conditions: EC50 for AMPK activation, ELISA
measured.property: EC50

// query Value lookup for EC50; key = N#Cc1ccc(CN2CCC(NC(=O)c3ccc(C(=O)N4CCC(Oc5ccc(C(F)(F)F)cc5)CC4)cn3)CC2)cc1
// result < 500 nM

// query Value lookup for EC50; key = COc1ccc(O[C@H]2CC[C@@H](NC(=O)c3ccc(C(=O)N4CCC(C(=O)c5ccc(OC)cc5)CC4)cn3)CC2)cc1
// result < 500 nM

// query Value lookup for EC50; key = COc1ccc(C(=O)C2CCN(C(=O)c3ccc(C(=O)NC4CCN(Cc5cccc(OC(F)(F)F)c5)CC4)cn3)CC2)cc1
// result < 500 nM

// query Value lookup for EC50; key = CS(=O)(=O)c1ccc(OC2CCN(C(=O)c3cnc(C(=O)NC4CCN(Cc5ccc(C#N)cc5)CC4)cn3)CC2)cc1
// result < 500 nM

// query Value lookup for EC50; key = CS(=O)(=O)c1ccc(C(=O)C2CCN(C(=O)c3ccc(C(=O)Nc4ccc(Oc5ccc(F)cc5)nc4)cn3)CC2)cc1
// result < 500 nM

// query Value lookup for EC50; key = N#Cc1ccc(CN2CCC(NC(=O)c3ccc(C(=O)N4CCC(Oc5cccnc5)CC4)cn3)CC2)cc1
// result < 500 nM

// query Value lookup for EC50; key = N#Cc1ccc(CN2CCC(NC(=O)c3ccc(C(=O)N4CCC(Oc5ccc(NS(=O)(=O)C6CC6)cc5)CC4)nc3)CC2)cc1
// result 1000 to 5000 nM

// query Value lookup for EC50; key = CS(=O)(=O)c1ccc(OC2CCN(C(=O)c3ccc(C(=O)NC4CCN(Cc5cc(F)cc(F)c5)CC4)nc3)CC2)cc1
// result < 500 nM

// query Value lookup for EC50; key = CS(=O)(=O)c1ccc(C(=O)C2CCN(C(=O)c3ccc(C(=O)NC4CCN(Cc5ccc(C#N)cc5)CC4)cn3)CC2)cc1
// result 1000 to 5000 nM

// query Value lookup for EC50; key = COc1ccc(CN2CCC(N(C)C(=O)c3ccc(C(=O)N4CCC(C(=O)c5ccc(OC)cc5)CC4)nc3)CC2)cc1
// result < 500 nM

// query Value lookup for EC50; key = O=C(c1ccc(C(=O)N2CCN(Cc3ccccc3)CC2)nc1)N1CCN(Cc2ccccc2)CC1
// result 5000 to 10000 nM

// query Value lookup for EC50; key = O=C(NCc1ccccc1)c1ccc(C(=O)N2CCN(Cc3ccc(F)cc3)CC2)cn1
// result 5000 to 10000 nM

// query Value lookup for EC50; key = N#Cc1ccc(O[C@H]2CC[C@@H](NC(=O)c3ccc(C(=O)N4CCC(Oc5ccc(C(F)(F)F)cc5)CC4)cn3)CC2)cc1
// result < 500 nM

// query Value lookup for EC50; key = CS(=O)(=O)c1ccc(N2CCC(NC(=O)c3ccc(C(=O)N4CCC(Oc5ccc(C#N)cc5)CC4)nc3)CC2)cc1
// result 1000 to 5000 nM

* * *

- system.tested: AMPK
- assay: AMPK activation, enzyme-linked immunosorbent assay
- study.conditions: EC50 for AMPK activation, ELISA
pEC50: −log10 of the molar value.
Field: pEC50. Provide a value for each of the molecules that follow.

// query Value lookup for pEC50; key = N#Cc1ccc(CN2CCc3ccc(NC(=O)c4ccc(C(=O)NCc5ccc(F)cc5)cn4)cc3C2)cc1
// result 6.00 to 6.30

// query Value lookup for pEC50; key = O=C(NC1CCN(Cc2ccc(F)cc2)CC1)c1ccc(C(=O)N2CCN(Cc3ccc(F)cc3)CC2)nc1
// result > 6.30

// query Value lookup for pEC50; key = COc1ccc(CN2CCC(NC(=O)c3ccc(C(=O)N4CCC(Oc5cccc(NC(=O)C6CC6)c5)CC4)nc3)CC2)cc1
// result > 6.30

// query Value lookup for pEC50; key = N#Cc1ccc(CN2CCC(NC(=O)c3ccc(C(=O)N4CCN(c5ccc(C(=O)C6CC6)cc5)CC4)cn3)CC2)cc1
// result > 6.30

// query Value lookup for pEC50; key = COc1ccc(OC2CCN(C(=O)c3ccc(C(=O)NC4CCN(Cc5ccc(C#N)cc5)CC4)cn3)CC2)c(N)c1
// result 6.00 to 6.30

// query Value lookup for pEC50; key = O=C(Nc1ccc(Oc2ccc(F)cc2)nc1)c1ccc(C(=O)N2CCC(C(=O)c3ccc(F)cc3F)CC2)cn1
// result > 6.30

// query Value lookup for pEC50; key = N#Cc1ccc(CN2CCC(NC(=O)c3ccc(C(=O)N4CCC(C(=O)c5ccc(F)cc5)CC4)cn3)CC2)cc1
// result > 6.30

// query Value lookup for pEC50; key = COc1ccc(OC2CCN(C(=O)c3ccc(C(=O)N[C@H]4CC[C@H](Oc5ccc(C#N)cc5)CC4)nc3)CC2)cc1
// result > 6.30

// query Value lookup for pEC50; key = C[S+]([O-])c1ccc(C(=O)C2CCN(C(=O)c3ccc(C(=O)NC4CC[N+]([O-])(Cc5ccc(C#N)cc5)CC4)nc3)CC2)cc1 (centres unmarked)
// result < 5.00

// query Value lookup for pEC50; key = CC(=O)c1ccc(OC2CCN(C(=O)c3ccc(C(=O)Nc4ccc(Oc5ccc(F)cc5)nc4)cn3)CC2)cc1
// result > 6.30

// query Value lookup for pEC50; key = COc1ccc(OC2CCN(C(=O)c3ccc(C(=O)NC4CCN(Cc5ccc(F)cc5)CC4)nc3)CC2)cc1
// result > 6.30

// query Value lookup for pEC50; key = O=C(Nc1ccc(C(=O)N2CCN(Cc3ccc(F)cc3)CC2)cn1)c1ccc(-c2ccccc2)cc1
// result < 5.00

// query Value lookup for pEC50; key = COc1ccc(-c2ccc(Nc3ccc(C(=O)NC4CCN(Cc5ccccc5)CC4)nc3)cc2)cc1
// result < 5.00

// query Value lookup for pEC50; key = N#Cc1ccc(OC2CCN(C(=O)c3ccc(C(=O)N[C@H]4CC[C@@H](Oc5ccc(F)cc5)CC4)cn3)CC2)cc1
// result > 6.30

// data source = patent US9663496B2
